// reported T/C per item
- System: L1210 leukemia ip in BDF1 mice, survival T/C
- EXPERIMENT_NOTES: NCI In Vivo Anticancer Drug Screen. Data for tumor model L1210 Leukemia (intraperitoneal) in B6D2F1 (BDF1) mice
- RUN_CONDITIONS: endpoint: mean survival time; dose: 200.0 mg/kg/injection; schedule: Q04DX003 (ip); vehicle: saline with Tween-80; higher = longer survival
Toxic doses and inconclusive results are not listed.

{"columns": ["COMPOUND", "SYSTEM_UNDER_TEST", "T/C"],
 "data": [
  ["COc1cc(/C=N/O)ccc1O", "L1210 leukemia ip in BDF1 mice, survival T/C", "87 % of control"],
  ["CN(C)CCC/C=N/Nc1ccc(Cl)cc1[N+](=O)[O-]", "L1210 leukemia ip in BDF1 mice, survival T/C", "91 % of control"],
  ["O=C(O)C1=C(C(=O)O)C2CCC1C2", "L1210 leukemia ip in BDF1 mice, survival T/C", "88 % of control"],
  ["COC(=O)c1c(Cl)c(Cl)c(Cl)c(Cl)c1C(=O)OC", "L1210 leukemia ip in BDF1 mice, survival T/C", "100 % of control"],
  ["CC(C(=O)c1cc(O)c(O)cc1C(O)(C(F)(F)F)C(F)(F)F)C(O)(C(F)(F)F)C(F)(F)F (centres undefined)", "L1210 leukemia ip in BDF1 mice, survival T/C", "98 % of control"],
  ["CC(=O)c1ccccc1OCC(O)CN1CCN(c2cccc(C(F)(F)F)c2)CC1 (centres undefined)", "L1210 leukemia ip in BDF1 mice, survival T/C", "108 % of control"],
  ["O=c1oc(-c2cc([N+](=O)[O-])ccc2Cl)nc2ccccc12", "L1210 leukemia ip in BDF1 mice, survival T/C", "93 % of control"],
  ["Cc1ccc(-c2c(O)c(Br)c(-c3ccc(C)cc3C)c(O)c2Br)c(C)c1", "L1210 leukemia ip in BDF1 mice, survival T/C", "93 % of control"],
  ["c1cnc2c3c(ccc2c1)CN(C12CC4CC(CC(C4)C1)C2)CO3", "L1210 leukemia ip in BDF1 mice, survival T/C", "107 % of control"],
  ["NC(=O)NN=C1CCCCCCCCCCC1", "L1210 leukemia ip in BDF1 mice, survival T/C", "105 % of control"],
  ["CCOC(=O)NC(C)(C)CN(C(=O)OCC)c1ccccc1", "L1210 leukemia ip in BDF1 mice, survival T/C", "108 % of control"],
  ["CC(C)CCCC(C)C1CCC2C3CC=C4C=C(OC(=O)c5ccccc5)CCC4(C)C3CCC12C (centres undefined)", "L1210 leukemia ip in BDF1 mice, survival T/C", "95 % of control"],
  ["COc1cc2c3cc1Oc1c(OC)c(OC)cc4c1C(Cc1ccc(OC(C)=O)c(c1)Oc1ccc(cc1)CC3N(C)CC2)N(C)CC4 (centres undefined)", "L1210 leukemia ip in BDF1 mice, survival T/C", "101 % of control"],
  ["CCCCOC(=O)CSSCC(=O)OCCCC", "L1210 leukemia ip in BDF1 mice, survival T/C", "109 % of control"],
  ["Nc1[nH]nc2nccnc12", "L1210 leukemia ip in BDF1 mice, survival T/C", "97 % of control"],
  ["O=C1C(Cl)=C(Nc2ccccc2Cl)C(=O)C(Cl)=C1Nc1ccccc1Cl", "L1210 leukemia ip in BDF1 mice, survival T/C", "98 % of control"],
  ["C=C(Br)CNC(=O)C(=O)OCC", "L1210 leukemia ip in BDF1 mice, survival T/C", "90 % of control"],
  ["Cc1ccc(Cl)cc1NC(=O)Nc1ccc(C)c(NC(=O)Nc2cc(Cl)ccc2C)c1", "L1210 leukemia ip in BDF1 mice, survival T/C", "86 % of control"],
  ["Nc1c(Br)cc(Br)c2ccccc12", "L1210 leukemia ip in BDF1 mice, survival T/C", "92 % of control"],
  ["CNC(=S)N/N=C/c1ccc([N+](=O)[O-])s1", "L1210 leukemia ip in BDF1 mice, survival T/C", "90 % of control"],
  ["N#CCC(=O)Cc1ccccc1[N+](=O)[O-]", "L1210 leukemia ip in BDF1 mice, survival T/C", "100 % of control"],
  ["NC(=O)c1cccc([N+](=O)[O-])c1", "L1210 leukemia ip in BDF1 mice, survival T/C", "95 % of control"],
  ["C1=CC2CC3(OCCO3)C2C1 (centres undefined)", "L1210 leukemia ip in BDF1 mice, survival T/C", "92 % of control"],
  ["C=C1CC(C)(c2ccc(CCCC(=O)OCC)cc2)OC1=O (centres undefined)", "L1210 leukemia ip in BDF1 mice, survival T/C", "97 % of control"]
]}

* * *

Each entry below carries its reported T/C.
- Tested on: L1210 leukemia ip in BDF1 mice, survival T/C
- EXPERIMENT_NOTES: NCI In Vivo Anticancer Drug Screen. Data for tumor model L1210 Leukemia (intraperitoneal) in B6D2F1 (BDF1) mice
- RUN_CONDITIONS: endpoint: mean survival time; dose: 100.0 mg/kg/injection; schedule: Q01DX001 (ip); vehicle: other; higher = longer survival
Inconclusive results and toxic doses are left out.

{"columns": ["COMPOUND", "SYSTEM_UNDER_TEST", "T/C"],
 "data": [
  ["NC(=O)c1cc([N+](=O)[O-])ccc1N", "L1210 leukemia ip in BDF1 mice, survival T/C", "103 % of control"],
  ["Brc1ccc(Br)c2cnccc12", "L1210 leukemia ip in BDF1 mice, survival T/C", "93 % of control"],
  ["CCCCC(=O)c1cc(OC)cc(OC)c1", "L1210 leukemia ip in BDF1 mice, survival T/C", "102 % of control"],
  ["CC(=O)OCCC/C(=C\\c1ccc(F)cc1)[N+](=O)[O-]", "L1210 leukemia ip in BDF1 mice, survival T/C", "111 % of control"],
  ["OC(CCl)CNc1ccc(-c2ccccc2)cc1 (stereo not given)", "L1210 leukemia ip in BDF1 mice, survival T/C", "94 % of control"]
]}

* * *

- Test system: L1210 leukemia ip in BDF1 mice, survival T/C
- EXPERIMENT_NOTES: NCI In Vivo Anticancer Drug Screen. Data for tumor model L1210 Leukemia (intraperitoneal) in B6D2F1 (BDF1) mice
- RUN_CONDITIONS: endpoint: mean survival time; dose: 200.0 mg/kg/injection; schedule: Q01DX001 (ip); vehicle: carboxymethylcellulose (CMC); higher = longer survival
Inconclusive results and toxic doses are left out.
ASSAY_READOUT: T/C

{"columns": ["MOLECULE", "MEASURED_RESULT"],
 "data": [
  ["CC#CC(O)(C(=O)OC)c1ccccc1 (stereo not drawn)", "102 % of control"],
  ["CC(C)C1c2ccccc2C(=O)C1C(N)=O (stereo not drawn)", "100 % of control"],
  ["CCCC1C(CC)C=NN1Cc1ccccc1 (stereo not drawn)", "94 % of control"],
  ["Cc1cc(NS(=O)(=O)c2ccc(N=Nc3c(N)n(C)c(=O)n(C)c3=O)cc2)nc(C)n1", "104 % of control"],
  ["CCOP(=O)(NCCc1ccccc1)OCC", "101 % of control"],
  ["O=C(CCN(Cc1ccccc1)Cc1ccccc1)c1csc2ccccc12", "89 % of control"],
  ["CN(C)c1ccc(CC2CCOC2=O)cc1 (stereo not drawn)", "96 % of control"],
  ["Nc1c(Br)cc(Br)c2[nH]c(=O)c3ccccc3c12", "96 % of control"],
  ["CCCCN(C)/N=N/c1nc[nH]c1C(=O)OC", "104 % of control"],
  ["CCOc1cc(F)cc([N+](=O)[O-])c1", "108 % of control"],
  ["O=C(O)CCCc1nc2ccccc2c(=O)[nH]1", "106 % of control"],
  ["Cc1ccnc(NS(=O)(=O)c2ccc(N=Nc3c(N)[nH]c(=S)[nH]c3=O)cc2)n1", "95 % of control"],
  ["CN(C)C1c2cc(Br)ccc2-c2ccc([N+](=O)[O-])cc21 (stereo not drawn)", "103 % of control"]
]}

* * *

- Tested on: L1210 leukemia ip in BDF1 mice, survival T/C
- EXPERIMENT_NOTES: NCI In Vivo Anticancer Drug Screen. Data for tumor model L1210 Leukemia (intraperitoneal) in B6D2F1 (BDF1) mice
- RUN_CONDITIONS: endpoint: mean survival time; dose: 200.0 mg/kg/injection; schedule: Q01DX001 (ip); vehicle: saline with Tween-80; higher = longer survival
Inconclusive results and toxic doses are left out.

{"columns": ["MOLECULE", "T/C"],
 "data": [
  ["CC(=O)OCC1OC(Oc2ccccc2)C(OC(C)=O)C(OC(C)=O)C1OC(C)=O (stereo unspecified)", "96 % of control"],
  ["CCCCSc1nc2ccccc2c(=O)n1-c1ccccc1", "103 % of control"],
  ["CNC(=O)OCCOc1ccccc1", "108 % of control"],
  ["O=C(O)c1cccc(CCc2cccnc2)c1", "101 % of control"],
  ["CS(=O)(=O)OC1C(N=[N+]=[N-])CN(C(=O)c2ccccc2)C1CCOC(=O)c1ccccc1 (stereo unspecified)", "96 % of control"],
  ["Cc1cc(C(=O)O)c(CN2C(=O)c3ccccc3C2=O)c(=O)n1C", "100 % of control"],
  ["CC(C)(C)C1CCC2OC(C)(C(C)(C)C)CC(C(C)(C)C)C2C1 (stereo unspecified)", "100 % of control"],
  ["Cn1c(=O)cc[nH]c1=O", "98 % of control"],
  ["O=Cc1[nH]c(=S)[nH]c(=O)c1Cc1ccc2ccccc2c1", "104 % of control"],
  ["COc1ccc(-n2cnc3c(=O)[nH]c(N)nc32)cc1NC(=O)Nc1cccc(S(=O)(=O)F)c1", "100 % of control"],
  ["C=CC(=O)Nc1cccc(OC(=O)NC)c1", "100 % of control"]
]}
